# target-desc: T1, 4H462-bA
# T1 chain: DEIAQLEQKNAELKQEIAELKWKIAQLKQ
# protocol: two-hybrid library CCNG1;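 further: natural log of median RNA to DNA barcode read ratio; higher means stronger binding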
reported-property: interaction score
Form field (numeric): enter value without unit.

Here's what some known entries look like.
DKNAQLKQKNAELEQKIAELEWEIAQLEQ [4H4001-bA]
-0.0948
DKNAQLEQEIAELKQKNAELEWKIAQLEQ [4H3189-bA]
-1.62
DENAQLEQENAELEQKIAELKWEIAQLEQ [4H1193-bA]
0.96
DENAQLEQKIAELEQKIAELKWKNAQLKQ [4H1328-bA]
-0.405
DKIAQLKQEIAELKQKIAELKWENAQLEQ [4H2667-bA]
-0.172
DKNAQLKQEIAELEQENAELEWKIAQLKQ [4H3606-bA]
-1.18

Next item in the queue.
Prompt: Form field: reported interaction score of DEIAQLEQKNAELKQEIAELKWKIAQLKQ [4H462-bA]
Completion: 1.24
